The entries below are paired with their reported IC50.
molecular target: recombinant human ASK1 kinase (Homo sapiens (Human)); assay: TR-FRET ASK1 kinase assay (HTRF KinEASE-STK); type: biochemical; conditions: Compounds 6-17, same competitive TR-FRET immunoassay

Consider the reported IC50 for these compounds:
{"COMPOUND": "CC1(O)CCN(c2cnc(C(=O)Nc3csc(-c4nncn4C4CC4)n3)cc2-n2cnc(C3CC3)c2)CC1", "TARGET OR TEST SYSTEM": "recombinant human ASK1 kinase (Homo sapiens (Human))", "IC50": "2.5 nM"}
{"COMPOUND": "O=C(Nc1csc(-c2nncn2C2CC2)n1)c1cc(-n2cnc(C3CC3)c2)c(N2CCCCC2)cn1", "TARGET OR TEST SYSTEM": "recombinant human ASK1 kinase (Homo sapiens (Human))", "IC50": "2 nM"}
{"COMPOUND": "O=C(Nc1csc(-c2nncn2C2CC2)n1)c1cc(-n2cnc(C3CC3)c2)c(N2CCC2)cn1", "TARGET OR TEST SYSTEM": "recombinant human ASK1 kinase (Homo sapiens (Human))", "IC50": "2.4 nM"}
{"COMPOUND": "C[C@H](n1cnnc1-c1nc(NC(=O)c2cc(-n3cnc(C4CC4)c3)c(N3CCN(C)CC3)cn2)cs1)C(F)(F)F", "TARGET OR TEST SYSTEM": "recombinant human ASK1 kinase (Homo sapiens (Human))", "IC50": "2.1 nM"}
{"COMPOUND": "CN1CCN(c2cnc(C(=O)Nc3csc(-c4nncn4C4CC4)n3)cc2-n2cnc(C3CC3)c2)CC1", "TARGET OR TEST SYSTEM": "recombinant human ASK1 kinase (Homo sapiens (Human))", "IC50": "3.1 nM"}

Query: IC50 lookup needed for O=C(Nc1csc(-c2nncn2C2CC2)n1)c1cc(-n2cnc(C3CC3)c2)c(N2CCC(O)C2)cn1 (stereo not shown) , thanks.
Response: 3 nM

Query: IC50 lookup needed for "C[C@H](n1cnnc1-c1nc(NC(=O)c2cc(-n3cnc(C4CC4)c3)c(N3CCCC3)cn2)cs1)C(F)(F)F" , thanks.
Response: 2.2 nM

---

biological target: recombinant human ASK1 kinase (Homo sapiens (Human), UniProt Q99683); test: TR-FRET ASK1 kinase assay (HTRF KinEASE-STK); format: biochemical; settings: TR-FRET, 100 μM ATP, 4 nM ASK1 kinase; average of quadruplicate
Sequence (Q99683 whole entry): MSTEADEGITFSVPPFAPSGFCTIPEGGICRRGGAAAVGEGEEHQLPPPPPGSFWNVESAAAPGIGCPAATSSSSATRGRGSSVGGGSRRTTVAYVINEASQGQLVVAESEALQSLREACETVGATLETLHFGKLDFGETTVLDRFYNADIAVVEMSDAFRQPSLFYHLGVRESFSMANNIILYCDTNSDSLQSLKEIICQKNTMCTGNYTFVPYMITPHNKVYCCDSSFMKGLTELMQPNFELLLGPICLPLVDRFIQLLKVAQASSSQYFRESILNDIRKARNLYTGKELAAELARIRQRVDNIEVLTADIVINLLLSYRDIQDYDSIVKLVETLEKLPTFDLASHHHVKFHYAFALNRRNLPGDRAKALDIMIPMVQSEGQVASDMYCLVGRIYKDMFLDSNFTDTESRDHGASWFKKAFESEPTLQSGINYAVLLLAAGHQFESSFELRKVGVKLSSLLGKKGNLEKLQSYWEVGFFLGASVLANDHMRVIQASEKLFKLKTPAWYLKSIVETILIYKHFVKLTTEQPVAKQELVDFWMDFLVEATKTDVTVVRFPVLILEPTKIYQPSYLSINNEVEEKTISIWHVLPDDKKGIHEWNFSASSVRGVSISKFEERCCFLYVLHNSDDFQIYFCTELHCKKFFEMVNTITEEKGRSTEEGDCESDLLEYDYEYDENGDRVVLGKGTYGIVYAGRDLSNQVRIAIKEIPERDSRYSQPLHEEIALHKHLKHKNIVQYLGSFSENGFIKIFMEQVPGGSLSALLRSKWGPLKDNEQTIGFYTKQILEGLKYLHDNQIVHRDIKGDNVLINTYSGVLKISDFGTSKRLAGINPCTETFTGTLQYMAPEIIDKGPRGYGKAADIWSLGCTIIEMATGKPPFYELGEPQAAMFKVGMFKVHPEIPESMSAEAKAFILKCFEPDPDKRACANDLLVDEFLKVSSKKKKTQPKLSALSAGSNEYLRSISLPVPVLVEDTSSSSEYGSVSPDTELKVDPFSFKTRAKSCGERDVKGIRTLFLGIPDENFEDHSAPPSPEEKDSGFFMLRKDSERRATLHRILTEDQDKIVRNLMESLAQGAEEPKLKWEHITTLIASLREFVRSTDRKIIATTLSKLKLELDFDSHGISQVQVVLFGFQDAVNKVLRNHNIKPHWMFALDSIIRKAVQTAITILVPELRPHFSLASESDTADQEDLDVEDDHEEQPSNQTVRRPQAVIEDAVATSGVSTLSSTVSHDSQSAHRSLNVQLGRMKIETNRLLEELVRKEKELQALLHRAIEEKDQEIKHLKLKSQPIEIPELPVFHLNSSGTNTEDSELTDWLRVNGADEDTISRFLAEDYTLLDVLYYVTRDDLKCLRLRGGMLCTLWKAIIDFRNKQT
MEASURED PARAMETER: pIC50
pIC50 is defined as minus the log10 of a concentration measured in mol/L.

Consider the reported pIC50 for these molecules:
{"SMILES RECORD": "C[C@H](n1cnnc1-c1nc(NC(=O)c2cc(-n3cnc(C4CC4)c3)c(N(C)C)cn2)cs1)C(F)(F)F", "pIC50": 8.73}
{"SMILES RECORD": "CC1(O)CN(c2cnc(C(=O)Nc3csc(-c4nncn4C4CC4)n3)cc2-n2cnc(C3CC3)c2)C1", "pIC50": 8.80}
{"SMILES RECORD": "O=C(Nc1csc(-c2nncn2C2CC2)n1)c1cc(-n2cnc(C3CC3)c2)c(N2CCOCC2)cn1", "pIC50": 8.84}

Query: pIC50 lookup needed for "C[C@H](n1cnnc1-c1nc(NC(=O)c2cc(-n3cnc(C4CC4)c3)c(N3CCOCC3)cn2)cs1)C(F)(F)F" , thanks.
Response: 8.58

Query: pIC50 lookup needed for "C[C@H](n1cnnc1-c1nc(NC(=O)c2cc(-n3cnc(C4CC4)c3)c(N3CC(C)(O)C3)cn2)cs1)C(F)(F)F" , thanks.
Response: 8.77
